target.of.assay: ABL (Homo sapiens)
Sequence (P00519 whole entry): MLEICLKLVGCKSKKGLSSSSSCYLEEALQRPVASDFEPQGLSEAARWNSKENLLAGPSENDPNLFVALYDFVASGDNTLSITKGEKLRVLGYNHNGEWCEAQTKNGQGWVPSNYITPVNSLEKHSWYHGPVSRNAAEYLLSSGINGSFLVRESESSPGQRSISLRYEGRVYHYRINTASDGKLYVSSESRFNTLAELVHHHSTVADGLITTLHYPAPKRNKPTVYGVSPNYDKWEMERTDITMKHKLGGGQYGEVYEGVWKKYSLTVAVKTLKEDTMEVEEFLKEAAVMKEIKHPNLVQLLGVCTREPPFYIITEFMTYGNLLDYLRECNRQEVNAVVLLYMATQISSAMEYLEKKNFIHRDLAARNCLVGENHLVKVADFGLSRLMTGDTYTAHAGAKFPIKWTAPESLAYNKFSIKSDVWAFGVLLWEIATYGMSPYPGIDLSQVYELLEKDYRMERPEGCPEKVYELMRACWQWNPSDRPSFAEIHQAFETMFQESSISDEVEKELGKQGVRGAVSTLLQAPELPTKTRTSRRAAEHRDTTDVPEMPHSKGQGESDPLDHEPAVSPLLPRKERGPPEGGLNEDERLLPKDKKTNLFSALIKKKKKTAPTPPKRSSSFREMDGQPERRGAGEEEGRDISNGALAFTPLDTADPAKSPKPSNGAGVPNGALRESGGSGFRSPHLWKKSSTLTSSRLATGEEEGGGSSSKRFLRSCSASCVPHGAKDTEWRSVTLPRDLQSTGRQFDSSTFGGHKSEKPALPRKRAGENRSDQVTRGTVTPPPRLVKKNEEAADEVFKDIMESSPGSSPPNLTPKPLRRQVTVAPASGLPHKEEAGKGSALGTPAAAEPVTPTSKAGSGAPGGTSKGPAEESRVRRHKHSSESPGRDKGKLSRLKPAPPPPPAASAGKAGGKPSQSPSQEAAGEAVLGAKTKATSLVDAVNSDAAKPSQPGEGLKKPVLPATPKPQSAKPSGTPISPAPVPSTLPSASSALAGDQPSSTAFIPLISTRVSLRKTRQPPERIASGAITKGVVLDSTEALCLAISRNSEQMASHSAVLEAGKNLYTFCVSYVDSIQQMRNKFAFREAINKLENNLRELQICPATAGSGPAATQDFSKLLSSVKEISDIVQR
protocol.text: Off-chip mobility-shift kinase assay (Caliper LABCHIP), ABL
condition.notes: concentration 3.0E−08; imatinib-corresponding compounds

given.smiles | ABL AVG % Activity at 3.0E−08
COCCOCCOCCOCCOCCOCCOCCN1CCN(Cc2ccc(C(=O)Nc3ccc(C)c(Nc4nccc(-c5cccnc5)n4)c3)cc2)CC1 | 88%
COCCOCCOCCOCCOCCNCc1ccc(C(=O)Nc2ccc(C)c(Nc3nccc(-c4cccnc4)n3)c2)cc1 | 92%
COCCOCCOCCOCCOCCOCCOCCOCCOCCN1CCN(Cc2ccc(C(=O)Nc3ccc(C)c(Nc4nccc(-c5cccnc5)n4)c3)cc2)CC1 | 89%
COCCOCCOCCOCCOCCOCCOCCOCCOCCNCc1ccc(C(=O)Nc2ccc(C)c(Nc3nccc(-c4cccnc4)n3)c2)cc1 | 93%
COCCOCCOCCOCCOCCOCCOCCNCc1ccc(C(=O)Nc2ccc(C)c(Nc3nccc(-c4cccnc4)n3)c2)cc1 | 94%

----------
// reported ABL AVG % Activity at 3.0E−06 per item
target.of.assay: ABL (Homo sapiens)
protocol.text: Off-chip mobility-shift kinase assay (Caliper LABCHIP), ABL
condition.notes: concentration 3.0E−06; imatinib-corresponding compounds
value.kind: ABL AVG % Activity at 3.0E−06

given.smiles | data.value
COCCOCCOCCOCCOCCOCCOCCOCCOCCN1CCN(Cc2ccc(C(=O)Nc3ccc(C)c(Nc4nccc(-c5cccnc5)n4)c3)cc2)CC1 | 49%
COCCOCCOCCOCCOCCNCc1ccc(C(=O)Nc2ccc(C)c(Nc3nccc(-c4cccnc4)n3)c2)cc1 | 66%
COCCOCCOCCOCCOCCOCCOCCN1CCN(Cc2ccc(C(=O)Nc3ccc(C)c(Nc4nccc(-c5cccnc5)n4)c3)cc2)CC1 | 52%
COCCOCCOCCOCCOCCOCCOCCNCc1ccc(C(=O)Nc2ccc(C)c(Nc3nccc(-c4cccnc4)n3)c2)cc1 | 59%
COCCOCCOCCOCCOCCOCCOCCOCCOCCNCc1ccc(C(=O)Nc2ccc(C)c(Nc3nccc(-c4cccnc4)n3)c2)cc1 | 70%

----------
// reported ABL AVG % Activity at 3.0E−10 per item
target.of.assay: ABL (Homo sapiens)
protocol.text: Off-chip mobility-shift kinase assay (Caliper LABCHIP), ABL
condition.notes: concentration 3.0E−10; imatinib-corresponding compounds

compound | target.of.assay | unit.info | ABL AVG % Activity at 3.0E−10
COCCOCCOCCOCCOCCOCCOCCN1CCN(Cc2ccc(C(=O)Nc3ccc(C)c(Nc4nccc(-c5cccnc5)n4)c3)cc2)CC1 [mPEG7-N′-Imatinib] | ABL (Homo sapiens) | % | 97
COCCOCCOCCOCCOCCOCCOCCOCCOCCN1CCN(Cc2ccc(C(=O)Nc3ccc(C)c(Nc4nccc(-c5cccnc5)n4)c3)cc2)CC1 [mPEG9-N′-Imatinib] | ABL (Homo sapiens) | % | 97
COCCOCCOCCOCCOCCNCc1ccc(C(=O)Nc2ccc(C)c(Nc3nccc(-c4cccnc4)n3)c2)cc1 [mPEG5-N-Imatinib] | ABL (Homo sapiens) | % | 96
COCCOCCOCCOCCOCCOCCOCCNCc1ccc(C(=O)Nc2ccc(C)c(Nc3nccc(-c4cccnc4)n3)c2)cc1 | ABL (Homo sapiens) | % | 97
COCCOCCOCCOCCOCCOCCOCCOCCOCCNCc1ccc(C(=O)Nc2ccc(C)c(Nc3nccc(-c4cccnc4)n3)c2)cc1 [mPEG9-N-Imatinib] | ABL (Homo sapiens) | % | 96
